Catalogue of IC50 values
test system: IL6 secretion by OCI-LY3 ABC-DLBCL cells; experiment: Human IL6 Mesoscale assay (OCI-LY3); format: cell-based; conditions: Homo sapiens, 24 h
outcome measure: IC50

- Cc1cnn(-c2nc(C)c(NC(=O)c3cnn(-c4cnc(N)c5ccccc45)c3C(F)(F)F)cc2Cl)n1 [Cpd 341]: 479 nM
- Cn1ccc(-c2ncc(NC(=O)c3cnn(-c4ccc(F)c5ncccc45)c3C(F)(F)F)cc2Cl)n1 [Cpd 273]: 85 nM
- O=C(Nc1cnc(-c2ncco2)c(Cl)c1)c1cnn(-c2ccc(F)c3ncccc23)c1C(F)(F)F [Cpd 288]: 251 nM
- O=C(Nc1ccnc(C(F)(F)F)c1)c1cnn(-c2cncc3c(F)cccc23)c1C(F)(F)F [Cpd 320]: 182 nM
